# measuredTarget: glutathione-S-transferase (GST) tagged LXRbeta LBD (ligand binding domain) (Homo sapiens)
# Construct: purchased Invitrogen pv4658.pps
# Sequence (P55055 222-460 limits assumed): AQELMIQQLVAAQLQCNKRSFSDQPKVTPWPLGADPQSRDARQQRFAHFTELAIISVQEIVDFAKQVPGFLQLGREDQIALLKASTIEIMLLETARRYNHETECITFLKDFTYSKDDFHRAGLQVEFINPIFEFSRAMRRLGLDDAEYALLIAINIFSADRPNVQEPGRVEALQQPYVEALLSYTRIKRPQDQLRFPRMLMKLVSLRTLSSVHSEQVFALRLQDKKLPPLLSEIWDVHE
# assayNotes: LanthaScreen TR-FRET Liver X Receptor Coactivator Assay, co-activator recruitment to LXRbeta LBD
# Assay type: biochemical
# measurementContext: efficacy at max dose, in relation to reference dual agonist T0901317; read-out: LXR beta Activity @ max dose (%)
// reported Emax per item
Report the value in % with no unit label.

// known answers, use as guide
Cc1cccc([C@@](O)(C(=O)N2CCC(CC3CCN(c4ccc(C(=O)N(C)C)c(C)c4)CC3)CC2)C(F)(F)F)c1    43
O=C(c1ccc(N2CCC(CC3CCN(C(=O)[C@](O)(c4ccccc4)C(F)(F)F)CC3)CC2)cc1Cl)N1[C@H]2CC[C@@H]1CC2    63
COc1cc(C)cc([C@@](O)(C(=O)N2CCC(CC3CCN(c4ccc(C(=O)N(C)C)c(Cl)c4)CC3)CC2)C(F)(F)F)c1    14

For CN(C)C(=O)c1ccc(N2CCC(CC3CCN(C(=O)[C@](O)(c4cc(F)cc(Cl)c4)C(F)(F)F)CC3)CC2)cc1Cl , what is its reported Emax?
81

For COc1cc(F)cc([C@@](O)(C(=O)N2CCC(CC3CCN(c4ccc(C(N)=O)c(Cl)c4)CC3)CC2)C(F)(F)F)c1 , what is its reported Emax?
79

For CNC(=O)c1ccc(N2CCC(CC3CCN(C(=O)[C@](O)(c4cccc(C(F)(F)F)c4)C(F)(F)F)CC3)CC2)nc1Cl , what is its reported Emax?
84

For CN(C)C(=O)c1ccc(N2CCC(CC3CCN(C(=O)[C@](O)(c4cccc(Br)c4)C(F)(F)F)CC3)CC2)cc1 , what is its reported Emax?
69

For COc1ccccc1C1(C(=O)N2CCC(CC3CCN(c4ccc(C(=O)N(C)C)c(Cl)n4)CC3)CC2)CCC1 , what is its reported Emax?
123

For CCC(O)(C(=O)N1CCC(CC2CCN(c3ccc(C(=O)N(C)C)c(Cl)c3)CC2)CC1)c1ccccc1 (stereo not drawn) , what is its reported Emax?
55

For CCOc1cccc([C@@](O)(C(=O)N2CC(CC3CCN(c4ccc(C(=O)NC)c(Cl)c4)CC3)C2)C(F)(F)F)c1 , what is its reported Emax?
59

For CC[C@](O)(C(=O)N1CCC(CC2CCN(c3ccc(C(=O)N(C)C)c(Cl)c3)CC2)CC1)c1ccccc1 , what is its reported Emax?
50

For CC(C)Oc1cccc([C@@](O)(C(=O)N2CCC(CC3CCN(c4ccc(C(=O)N(C)C)cc4)CC3)CC2)C(F)(F)F)c1 , what is its reported Emax?
63
